- Test system: HL-60(TB) leukemia
- Experiment notes: NCI-60 one-dose screen, 48 h (100 = growth as untreated, 0 = no growth, -100 = all killed)
- Test conditions: 10 µM unless noted
- Method: Growth inhibition of the HL-60(TB) human tumor cell line is measured as a screen for anti-cancer activity. Cells are grown in 96 well plates and exposed to the test compound for 48 hours. Compounds are tested at a single concentration, which is 10^-5 M for most compounds. The reported endpoint is percent growth (GI% or GIPRCNT), where numbers from 0 - 100% represent growth inhibition, and numbers from -100% - 0 represent cell death. For example, a value of 40 represents 60% growth inhibition. […]
About 83,000 compounds went through this panel and 20% of them were active in at least one assay; those are over-represented in the sample as a whole.
Assign class by growth: not lower than 40% means 1 (yes); lower than 40% means 0 (no).

Compound: Nc1nc(N(Cc2ccccc2)c2ccccc2)c2cn[nH]c2n1
Class assignment: 0 (no)

Compound: Nc1ccc(Cl)c([N+](=O)[O-])c1
Class assignment: 1 (yes)

Compound: NC(=O)N/N=C/c1ccc(Br)o1
Class assignment: 1 (yes)

Compound: CN1C(=O)NC(c2ccc3c(c2)OCO3)C=C1c1ccccc1 (configuration not stated)
Class assignment: 1 (yes)

Compound: CCn1c(CSc2nc3ccccc3c(=O)n2CCc2ccccc2)n[nH]c1=S
Class assignment: 1 (yes)

Compound: C=C1C(=O)O[C@H]2[C@H]1CC/C(COC(=O)NCc1ccc(Cn3c(=O)sn(-c4ccc(Cl)cc4)c3=O)cc1)=C\CC[C@@]1(C)O[C@@H]21
Class assignment: 0 (no)

Compound: CN1CCN(c2cc3c(cc2F)c(=O)c(C(=O)O)cn3-c2ccc(F)cc2)CC1
Class assignment: 1 (yes)

Compound: Cc1ccc(C)c(-c2csc(Nc3ccc(C)c(C)c3)n2)c1
Class assignment: 0 (no)

Compound: Cc1cc(=O)n(C(=S)Nc2ccc(Cl)cc2)c2cc(O)ccc12
Class assignment: 1 (yes)

Compound: CCN(Cc1ccc(Cl)c(Cl)c1)c1ccc2nc(N)nc(N)c2c1C
Class assignment: 0 (no)

Compound: C/C(Cc1ccc(Cl)cc1)=C(\c1ccc(OCCN2CCCCCC2)cc1)c1ccc(OC(=O)c2ccccc2)cc1
Class assignment: 0 (no)

Compound: COc1ccc2c(c1)C(=O)/C(=C/c1ccc(O)cc1)O2
Class assignment: 1 (yes)

Compound: COc1cc(-c2nc3ccccc3s2)ccc1OCc1nc2n(n1)S(=O)(=O)c1ccccc1N2C
Class assignment: 1 (yes)

Compound: O=C(CCN1CCCCC1)c1ccc(Cl)cc1
Class assignment: 1 (yes)

Compound: COC(=O)c1cc2oc(/C=N/NC(=O)c3cc4oc(-c5cccc(C(F)(F)F)c5)cc4[nH]3)cc2n1Cc1ccccc1
Class assignment: 1 (yes)

Compound: O=C(/C(=C\c1c(-c2ccccc2)[nH]c2ccccc12)S(=O)(=O)c1ccccc1)c1ccccc1
Class assignment: 0 (no)

Compound: CC(=O)c1cc2c(cc1F)C(C)(C)CCC2(C)C
Class assignment: 1 (yes)

Compound: COc1cccc(/C=N/NC(=S)NC2CC3CCC2C3)c1O (configuration not stated)
Class assignment: 1 (yes)

Compound: CC(=O)OCC1=CC2OC(=O)C3=COC(OC4OC(CO)C(O)C(O)C4O)C1C32 (configuration not stated)
Class assignment: 1 (yes)

Compound: COC(=O)c1cnc2c(c1)Oc1ccccc1-c1ccnn1-2
Class assignment: 1 (yes)

Compound: CC(C)N(Cc1ccccc1)c1c(Cl)ssc1=O
Class assignment: 1 (yes)

====

- Tested on: IGROV1 ovarian
- Experiment notes: NCI-60 one-dose screen, 48 h
- Test conditions: 10 µM
About 83,000 compounds went through this panel and 20% of them were active in at least one assay; those are over-represented in the sample as a whole. The source made the active and inactive calls. How the source made its calls: active means growth percent below 10; inactive means the rest.
Classes used: true for active, false for inactive

Molecule: C1CN1c1nc(N2CC2)nc(N2CC2)n1
Class assignment: true
--
Molecule: CCCCCCCC(=O)OCC/C=C/C1OC1C1OC(=O)/C=C\C=C\c2nc(oc2C)/C=C(/C)CCC2OC2C1OC(=O)NC(C)=O (configuration not stated)
Class assignment: true
--
Molecule: Oc1ccccc1OB(Oc1ccccc1O)N(CCCl)CCCl
Class assignment: false
--
Molecule: COc1ccc2c(c1)NC1=C(C(=O)OC1)C2c1cc(OC)c(OC)c(OC)c1 (configuration not stated)
Class assignment: false
--
Molecule: CCN(CC)c1ccc(C=C2C(=O)NC(=S)NC2=O)cc1
Class assignment: false
--
Molecule: COC(=O)C1CC2c3ccccc3C1c1ccccc12 (configuration not stated)
Class assignment: false
--
Molecule: CC1(C)CC2(CC(C)(C)c3cc(O)c(O)cc32)c2cc(O)c(O)cc21
Class assignment: false
--
Molecule: CCC(C)(C)O
Class assignment: false
--
Molecule: N#[N+]c1nc2nc(N)[nH]c(=O)c2[nH]1
Class assignment: false
--
Molecule: COc1cc(CNCCc2ccc(Cl)cc2)cc(OC)c1O
Class assignment: false
--
Molecule: C=CCC1(CC)C(=O)NC(=S)NC1=O
Class assignment: false
--
Molecule: CC1([N+](=O)[O-])COP(=O)(Nc2ccc(F)cc2)OC1 (configuration not stated)
Class assignment: false

====

- Test system: HL-60(TB) leukemia
- Experiment notes: NCI-60 one-dose screen, 48 h
- Test conditions: 10 µM unless noted
- Method: Growth inhibition of the HL-60(TB) human tumor cell line is measured as a screen for anti-cancer activity. Cells are grown in 96 well plates and exposed to the test compound for 48 hours. Compounds are tested at a single concentration, which is 10^-5 M for most compounds. The reported endpoint is percent growth (GI% or GIPRCNT), where numbers from 0 - 100% represent growth inhibition, and numbers from -100% - 0 represent cell death. For example, a value of 40 represents 60% growth inhibition. […]
The panel holds about 83,000 compounds, 20% with a hit somewhere; the sample as a whole holds those more often. Calls of active or inactive are those of the source. How the source made its calls: active means growth percent below 10; inactive means the rest.
Classes used: label 1 (active), label 0 (inactive)

Compound: COc1nc2c(c(=O)n1C)CN(Cc1ccccc1)C=N2
Class assignment: label 0

Compound: COc1cc(N(CCCl)CCCl)ccc1C=Nc1ccccc1C(=O)O
Class assignment: label 0

Compound: CN1CCN(c2c(F)cc(NC3=C(Cl)C(=O)c4ncccc4C3=O)cc2F)CC1
Class assignment: label 1

Compound: CC1CC(C)(C)OB(OC(C)CC(C)(C)OB2OC(C)CC(C)(C)O2)O1 (stereo not given)
Class assignment: label 0

Compound: Oc1ccc(O)c2c1C1(Cl)C(Cl)=C(Cl)C2(Cl)C1(Cl)Cl
Class assignment: label 0

Compound: Cc1ccc2[nH]cc(-c3nc(-c4cn(C)c5ncccc45)cs3)c2c1
Class assignment: label 0

Compound: O=C(Cn1c[n+](CC(=O)c2ccc([N+](=O)[O-])cc2)c2ccccc21)Nc1cccc2cccnc12
Class assignment: label 0

Compound: CC(C)C(C)(C)c1ccc(O)cc1
Class assignment: label 0

Compound: COc1cc2ncnc(Oc3ccc(NC(=O)Nc4ccc(C5(C#N)CCCC5)cc4)c4ccccc34)c2cc1OC
Class assignment: label 0

Compound: COc1ccccc1NC(=O)C1=C(C)NC(C)=C(C(=O)Nc2ccccc2OC)C1c1cccc([N+](=O)[O-])c1
Class assignment: label 0

====

- Test system: HL-60(TB) leukemia
- Experiment notes: NCI-60 one-dose screen, 48 h (100 = growth as untreated, 0 = no growth, -100 = all killed)
- Test conditions: 10 µM unless noted
This is part of a sample that, as a whole, favours compounds with a hit. Of some 83,000 tested, about 20% had one in any assay.
Measured growth, listed per entry.

Molecule: COc1ccc(/C=C2\CCCC3C2=Nc2ccccc2NC3c2ccc(OC)cc2)cc1 (configuration not stated)
Value units: %
growth: 78.2

Molecule: CCN(c1ccc(Cl)cc1)c1nc(-c2ccc([N+](=O)[O-])cc2)cs1
Value units: %
growth: 96.1

Molecule: S=C1SCN(CCc2ccccc2)CN1CCc1ccccc1
Value units: %
growth: 89.7

Molecule: Cc1ccc(NC(=O)N2CCCCC2)cc1[N+](=O)[O-]
Value units: %
growth: 104

Molecule: O=S(c1ccccc1)c1ccc2nnnn2n1 (configuration not stated)
Value units: %
growth: 42.5

Molecule: COP(=O)(OC)/C(=N\NS(=O)(=O)c1ccc(C)cc1)c1ccccc1
Value units: %
growth: 100

Molecule: CC(=O)Nc1ccc(-c2cc3c(NCc4ccc(F)cc4)ncnc3s2)cc1
Value units: %
growth: 89.1

Molecule: C[C@]12CC[C@@H]3C4=C(CC[C@H]3[C@@H]1CC[C@@H]2O)CC(=O)CC4
Value units: %
growth: 99.5

Molecule: CCN1CCN(c2nc(NNC(=O)c3cccc(OC)c3)nc(N3CCN(C(c4ccccc4)c4ccccc4)CC3)n2)CC1
Value units: %
growth: 28.4

Molecule: C=C1C(=O)O[C@H]2[C@H]1CC/C(COC(=O)/C=C\C(=O)NCc1ccc(Cn3c(=O)sn(-c4ccccc4)c3=O)cc1)=C\CC[C@@]1(C)O[C@@H]21
Value units: %
growth: -3.22

Molecule: CC(=O)c1nc2ccccc2n1CC(=O)c1cccc(Cl)c1
Value units: %
growth: -28.9

Molecule: Oc1ccc(CCC2CCCC(CCc3ccc(OCCF)cc3)N2)cc1 (configuration not stated)
Value units: %
growth: 82

Molecule: CCCCCCCCCCCCOC(=N)N(C)C
Value units: %
growth: 91.9

Molecule: Cn1ncc(Cl)c1-c1cc(C(=O)N[C@H](CN)Cc2cccc(F)c2)sc1Cl
Value units: %
growth: 12.2

Molecule: Cc1ccc(Nc2cccc3ccccc23)cc1
Value units: %
growth: 96.2

Molecule: CN=C(NC)N/N=C(C)\C=N\NC(=NC)NC
Value units: %
growth: 99

Molecule: Nc1c(C(=O)Nc2cccc3cnccc23)sc2nc3c(cc12)C(=O)CCC3
Value units: %
growth: 60.2

Molecule: O=C1Nc2ccccc2C12CC(c1ccccc1)=NN2 (configuration not stated)
Value units: %
growth: -8.55

Molecule: CC(=O)NNC(=O)c1sc(NC(C)=O)nc1C
Value units: %
growth: 101

Molecule: Cc1ccnc2c1ccc1c(C)ccnc12
Value units: %
growth: -5.64

Molecule: COC(=O)[C@]12CC[C@@H](C)[C@H](C)[C@@H]1C1=CC[C@@H]3[C@@]4(C)C[C@@H](OC(=O)c5ccco5)[C@H](O)[C@@](C)(CO)[C@@H]4[C@H](O)C[C@@]3(C)[C@]1(C)CC2
Value units: %
growth: -79.6

Molecule: COc1ccc(C2=Nn3c(nnc3-c3ccc(Cl)cc3N)SC2)cc1
Value units: %
growth: 100

Cited source: PubChem BioAssay (NCI)
